- Target Entity: plasma purified human complement protein C3 (human) (UniProt P01024)
- Sequence (P01024 23-667, chain 1 of 2): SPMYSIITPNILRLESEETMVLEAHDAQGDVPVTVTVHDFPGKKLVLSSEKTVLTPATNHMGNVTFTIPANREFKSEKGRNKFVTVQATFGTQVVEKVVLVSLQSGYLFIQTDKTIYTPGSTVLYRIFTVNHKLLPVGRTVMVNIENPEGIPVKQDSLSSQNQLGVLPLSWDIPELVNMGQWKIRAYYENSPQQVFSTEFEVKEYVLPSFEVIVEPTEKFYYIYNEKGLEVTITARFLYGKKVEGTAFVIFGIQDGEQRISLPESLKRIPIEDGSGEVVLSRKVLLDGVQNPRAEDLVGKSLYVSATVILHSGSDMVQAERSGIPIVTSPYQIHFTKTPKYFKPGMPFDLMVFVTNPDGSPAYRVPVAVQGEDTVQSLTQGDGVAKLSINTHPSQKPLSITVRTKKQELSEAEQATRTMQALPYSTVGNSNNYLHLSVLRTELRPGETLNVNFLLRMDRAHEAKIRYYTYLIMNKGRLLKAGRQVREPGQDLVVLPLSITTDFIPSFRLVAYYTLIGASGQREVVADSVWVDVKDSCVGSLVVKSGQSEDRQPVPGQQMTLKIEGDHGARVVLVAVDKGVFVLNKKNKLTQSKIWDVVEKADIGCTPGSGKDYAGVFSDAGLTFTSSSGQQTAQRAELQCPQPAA
- Sequence (P01024 672-1663, chain 2 of 2): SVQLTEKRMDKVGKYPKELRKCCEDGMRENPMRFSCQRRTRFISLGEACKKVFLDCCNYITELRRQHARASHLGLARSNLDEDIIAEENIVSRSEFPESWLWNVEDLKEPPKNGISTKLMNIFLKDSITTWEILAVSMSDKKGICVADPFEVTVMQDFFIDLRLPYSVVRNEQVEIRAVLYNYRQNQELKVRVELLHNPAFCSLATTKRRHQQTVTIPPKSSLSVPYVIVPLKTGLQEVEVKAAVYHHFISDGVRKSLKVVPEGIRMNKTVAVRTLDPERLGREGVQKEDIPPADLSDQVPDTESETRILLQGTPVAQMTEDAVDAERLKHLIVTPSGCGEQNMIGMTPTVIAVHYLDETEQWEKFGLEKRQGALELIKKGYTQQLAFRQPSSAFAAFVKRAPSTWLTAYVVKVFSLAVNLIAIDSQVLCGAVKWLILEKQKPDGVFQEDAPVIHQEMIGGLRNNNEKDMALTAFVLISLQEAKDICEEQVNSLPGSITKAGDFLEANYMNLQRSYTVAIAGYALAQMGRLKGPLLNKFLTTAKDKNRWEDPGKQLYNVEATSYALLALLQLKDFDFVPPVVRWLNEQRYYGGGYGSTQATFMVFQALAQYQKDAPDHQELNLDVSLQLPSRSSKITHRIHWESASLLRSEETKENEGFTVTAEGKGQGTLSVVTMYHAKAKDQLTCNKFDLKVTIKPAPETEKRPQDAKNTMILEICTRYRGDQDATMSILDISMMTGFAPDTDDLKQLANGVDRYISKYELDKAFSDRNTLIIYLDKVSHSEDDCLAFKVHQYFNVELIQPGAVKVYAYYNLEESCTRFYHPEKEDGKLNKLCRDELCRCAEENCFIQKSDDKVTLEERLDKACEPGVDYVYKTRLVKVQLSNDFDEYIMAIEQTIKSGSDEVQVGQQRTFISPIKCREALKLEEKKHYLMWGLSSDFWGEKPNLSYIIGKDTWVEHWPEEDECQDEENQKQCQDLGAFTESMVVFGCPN
- Method Summary: cell-based or functional assay

[
  {
    "Binder": "MTSP-1 H40R/I41H/F97D/C122S/G133D/G151N (enzyme) VVGGTDADEGEWPWQVSLHALGQGRHCGASLISPNWLVSAAHCYIDDRGFRYSDPTQWTAFLGLHDQSQRSAPGVQERRLKRIISHPFFNDDTFDYDIALLELEKPAEYSSMVRPISLPDASHVFPADKAIWVTGWGHTQYGGTNALILQKGEIRVINQTTCENLLPQQITPRMMCVGFLSGGVDSCQGDSGGPLSSVEADGRIFQAGVVSWGDGCAQRNKPGVYTRLPLFRDWIKENTGV",
    "EC50 of hC3 cleavage, nM": 60.4
  }
]

Numbers sourced from patent US20240018502A1.
